# assay.details: gradient 5% acetonitrile 3 min, to 50% in 2 min, to 85% in 15 min, held 3 min, 100 µL/min
# test.settings: column: Zorbax Extend-C18 2.1 x 50 mm; eluents: water / acetonitrile, 0.1% formic acid
Please respond with Fulfilled when measured RP-LC retention time is strictly beneath 1000 s, and with Not fulfilled in all other cases.

compound | class.label
O=C(Cc1cccc(Cl)c1)N1CC(n2cnnc2C2CC2)C1 | Fulfilled
CCOc1ccccc1-c1noc(Cn2c(=O)n(Cc3ccc(C)cc3)c(=O)c3sccc32)n1 | Not fulfilled
O=S(=O)(c1ccc2nc(N3CCN(c4ccc(F)cc4)CC3)ccc2c1)N1CCCC1 | Fulfilled
CCc1nnc2ccc(NC(=O)Nc3cccc(C)c3)cn12 | Fulfilled
NS(=O)(=O)c1ccc(CCNCc2ccc(-c3ccc(Cl)cc3Cl)o2)cc1 | Fulfilled

Report whether reported RP-LC retention time is lower than 1000 s (strictly) for Cn1c(=O)n([C@@H]2CCN(C(=O)CCc3nc4ccccc4s3)C2)c2ncccc21
Fulfilled

----------
# assay.details: gradient 5% acetonitrile 3 min, to 50% in 2 min, to 85% in 15 min, held 3 min, 100 µL/min
# test.settings: column: Zorbax Extend-C18 2.1 x 50 mm; eluents: water / acetonitrile, 0.1% formic acid
assay.endpoint: RP-LC retention time (s)
Respond numerically; units are s and should not be typed.

compound | uom | RP-LC retention time
CCn1ncc(Cl)c1C(=O)N1CCCC1c1c(C)noc1C (stereo not given) | s | 734

Give the reported value of RP-LC retention time for this record: O=C(c1ccccn1)N1CCC(Oc2cc(N3CCCCC3)ncn2)C1 (stereo not given)
686

----------
Catalogue of RP-LC retention time readings, one per entry.
# assay.details: gradient 5% acetonitrile 3 min, to 50% in 2 min, to 85% in 15 min, held 3 min, 100 µL/min
# test.settings: column: Zorbax Extend-C18 2.1 x 50 mm; eluents: water / acetonitrile, 0.1% formic acid
The answer is to be given in s; state only the numeric part.

compound | reported.value
CCOc1ccc(NC(=O)Cn2nc3cc(C)nc(-c4cccc(Cl)c4)n3c2=O)cc1 | 971
O=C(CN1CCN(C(=O)c2cnn3c(-c4ccc5c(c4)OCO5)ccnc23)CC1)N1CCCCC1 | 611

Please indicate RP-LC retention time recorded for COc1ccccc1-c1noc(C2CCCN2C(=O)c2cccc(OC)c2OC)n1 (stereo not given)
993

Consider the compound Cc1cc(C)c(C)c(S(=O)(=O)N2CCCC2c2nc(-c3cccc(F)c3)no2)c1C (stereo not given) and give its recorded RP-LC retention time.
1360

Identify the reported RP-LC retention time for the following entry. CCc1cc(=O)n(CC(=O)N2CCc3ccccc32)c(N2CCOCC2)n1
734

----------
# assay.details: gradient 5% acetonitrile 3 min, to 50% in 2 min, to 85% in 15 min, held 3 min, 100 µL/min
# test.settings: column: Zorbax Extend-C18 2.1 x 50 mm; eluents: water / acetonitrile, 0.1% formic acid
The recorded RP-LC retention time of each item maps onto one of these classes: lower range (below 700 s), middle range (700 s to below 800 s), upper range (800 s or more)

Worked examples, 5 compounds total:
cpd.smiles | class.label
CCNC(=O)N1CCc2c(c(-c3nc(Cc4ccccc4)no3)nn2C)C1 | middle range
CCOC(=O)c1[nH]c(C)c(CN(Cc2ccco2)C(=O)Nc2ccc(F)cc2)c1C | upper range
COc1ccccc1N1CCN(c2ncnc3c2CCC3)CC1 | lower range
CCc1noc(-c2ccnc(-n3cnc(C(=O)NC4CCCC4)c3)c2)n1 | upper range
Cc1cccc(C(=O)Nc2ccc(N3CCN(C4CCCCC4)C3=O)nc2)c1 | upper range

Field: class (RP-LC retention time) — entry: CCn1cc(CN2CCC(C(=O)NCC3CCCCC3)CC2)c2cc(OC)ccc21
middle range

Record O=C(Nc1cc(F)ccc1F)Nc1c(-c2ccccc2)nc2ccccn12 — which class?
lower range

----------
# assay.details: gradient 5% acetonitrile 3 min, to 50% in 2 min, to 85% in 15 min, held 3 min, 100 µL/min
# test.settings: column: Zorbax Extend-C18 2.1 x 50 mm; eluents: water / acetonitrile, 0.1% formic acid
assay.endpoint: RP-LC retention time (s)
API: value field is a number in s; no unit string.

Field: example entries. Status: answers known.
compound | RP-LC retention time / s
O=C1C(O)=C(S(=O)(=O)c2ccccc2)C(c2ccccc2)N1Cc1ccccc1 (stereo not drawn) | 947
COc1cccc(NC(=O)NC2CCN(c3ccc(F)c(C)c3)C2=O)c1 (stereo not drawn) | 818
Cc1ccc(C)c(-c2coc(-c3ccc(NC(=O)C(C)(C)C)cc3)n2)c1 | 1280

Output RP-LC retention time of CC1CCN(c2ncc3c(n2)CCC(C(=O)NCc2nc4ccccc4n2C)C3)CC1 (stereo not drawn)
625

Could you please provide reported RP-LC retention time for Cn1c(=O)sc2cc(S(=O)(=O)N3CCC(C(=O)N4CCc5ccccc5C4)CC3)ccc21 ? Thanks!
896

Identify measured RP-LC retention time corresponding to COC(=O)c1cccc(NC(=O)Cn2nc3c(N4CCC(C)CC4)nccn3c2=O)c1
786

Give the measured RP-LC retention time for COc1ccccc1CC(=O)N1CCCC1c1cc(C)on1 (stereo not drawn)
761

Supply measured RP-LC retention time of Cc1cc(N2CCN(C(=O)Nc3ccc4c(c3)OCO4)CC2)nc(N2CCCCC2)n1 in your reply.
660

Identify measured RP-LC retention time associated with CC(C)CNC(=O)CCC(=O)N1c2ccccc2NC2=C(C(=O)CC(C)(C)C2)C1c1ccco1 (stereo not drawn)
743

Please list RP-LC retention time recorded for the compound O=C(NCCN1CCCCC1)c1ccc(-c2ccc(N3CCSCC3)nc2)cc1
591

Give me measured RP-LC retention time, please, for this compound: CN(C)CCCN1c2ccc3ccccc3c2Sc2cccc(Cl)c21
792

Read the entry CCOC(=O)c1c(S(=O)(=O)N2CCC(C(=O)Nc3cccc(F)c3)CC2)c(C)n(C)c1C and write its reported RP-LC retention time.
862

Identify the reported RP-LC retention time for the following entry. COC(=O)c1sccc1NC(=O)N1CCCn2nc(-c3ccncc3)cc2C1
647

----------
# assay.details: gradient 5% acetonitrile 3 min, to 50% in 2 min, to 85% in 15 min, held 3 min, 100 µL/min
# test.settings: column: Zorbax Extend-C18 2.1 x 50 mm; eluents: water / acetonitrile, 0.1% formic acid
This listing pairs compounds with measured RP-LC retention time.
// note: answer is a bare numeric in s

compound | RP-LC retention time, s
CCN1c2cc(C)ccc2-n2cccc2C12CCN(C(=O)NCCCOC)CC2 | 931
CC(=O)c1ccc(NC(=O)C(C)Oc2cc(C(F)(F)F)c3c(C)nn(C)c3n2)cc1 (stereo not given) | 968
CCS(=O)(=O)N1CC(n2cc(C(=O)NCC3CC3)nn2)C1 | 664
CCn1c(=O)c(N2CCC(NC(=O)NC)CC2)nc2ccccc21 | 759
O=C([C@@H]1C[C@H](F)CN1C(=O)c1ccc(Cl)cc1)N1CCCCC1 | 724

Specify RP-LC retention time for Cc1ccc(-c2ccnc(SCC(=O)NCc3ccccc3)n2)cc1C and stop.
944

Please indicate RP-LC retention time recorded for CC(=O)Nc1cccc(Oc2nc(C)nc3sc4c(c23)CCCC4)c1
913

Supply reported RP-LC retention time belonging to this compound: Cc1cc(N2CCOCC2)nc(N2CCN(C(=O)Cc3ccc(F)cc3)CC2)n1
566

Supply recorded RP-LC retention time for COc1ccc(OC)c(S(=O)(=O)N2CC(=O)N(C3CCCC3)C3(CCCCC3)C2)c1 here.
1090

Read off the recorded RP-LC retention time for COC(=O)c1cc(OCC(=O)NC2CCCCC2)c2cc(OC)ccc2n1
791

----------
# assay.details: gradient 5% acetonitrile 3 min, to 50% in 2 min, to 85% in 15 min, held 3 min, 100 µL/min
# test.settings: column: Zorbax Extend-C18 2.1 x 50 mm; eluents: water / acetonitrile, 0.1% formic acid
# RP-LC retention time listing for each entry below
All answers are understood in s, so give the number only.

Completed entries (count: 3):
compound | assay.endpoint | reported.value
O=C1COc2ccccc2N1Cc1nc(-c2ccc(Cl)c(F)c2)no1 | RP-LC retention time | 1120
CCOc1ccc(N2C(=O)N(c3ccc(Cl)c(Cl)c3)C3CS(=O)(=O)CC32)cc1 (stereo not given) | RP-LC retention time | 915
O=C(NCc1csc(-c2cccs2)n1)C1CCN(S(=O)(=O)c2ccccc2)CC1 | RP-LC retention time | 870

Recall and state the measured RP-LC retention time for CC1CCN(C(=O)CN2C(=O)C3CCCCN3c3ccc(C(=O)N4CCCC4)cc32)CC1 (stereo not given) .
815

Output RP-LC retention time of CCOCCCNS(=O)(=O)c1cc(-c2ccno2)cs1
796

----------
We begin with a simple list: items and their reported RP-LC retention time.
# assay.details: gradient 5% acetonitrile 3 min, to 50% in 2 min, to 85% in 15 min, held 3 min, 100 µL/min
# test.settings: column: Zorbax Extend-C18 2.1 x 50 mm; eluents: water / acetonitrile, 0.1% formic acid
Give the value, in units of s, as a plain number.

Past entries and their recorded results:
compound | assay.endpoint | reported.value
CCCNC(=O)C1CCN(c2ccc(SCC(=O)Nc3ccc4c(c3)OCCO4)nn2)CC1 | RP-LC retention time | 626
COc1cccc(S(=O)(=O)N2C[C@@H]3C[C@H]2C[C@@H]3NC(=O)c2cccnc2)c1 | RP-LC retention time | 676
Cc1nc(-c2ccc(C(=O)N3CCC(C)CC3)cc2)cs1 | RP-LC retention time | 904
COCC(=O)Nc1cnc(-c2ccc(C(F)(F)F)cc2)nc1 | RP-LC retention time | 922
CCCS(=O)(=O)N1CCC2(CC1)c1[nH]c3ccccc3c1CCN2C | RP-LC retention time | 659

Fill in reported RP-LC retention time for this entry: CCn1c(COc2cccc3cccnc23)nnc1SC(F)F
568

Look up RP-LC retention time of Cc1cc(C)cc(NC(=O)N2CCC(N3CCN(Cc4ccccc4)C(=O)C3=O)CC2)c1 and report it.
740

Provide one value: measured RP-LC retention time of COc1ccc(-c2cc(N3CCN(C(=O)Nc4cc(OC)ccc4OC)CC3)ncn2)cc1
685

Supply recorded RP-LC retention time for CCN1CCCn2cc(S(=O)(=O)Nc3cc(OC)ccc3OC)cc2C1=O here.
704

The reported measurements were obtained from the METLIN SMRT retention time set (Domingo-Almenara et al. 2019).
